The reported measurements were obtained from patent US4985434A.

Measurement Target: purine nucleoside phosphorylase (PNP) (Bos taurus, UniProt P55859)
Construct: using calf spleen as the enzyme source; from tissue; host or cells: calf spleen
Sequence (P55859 whole entry): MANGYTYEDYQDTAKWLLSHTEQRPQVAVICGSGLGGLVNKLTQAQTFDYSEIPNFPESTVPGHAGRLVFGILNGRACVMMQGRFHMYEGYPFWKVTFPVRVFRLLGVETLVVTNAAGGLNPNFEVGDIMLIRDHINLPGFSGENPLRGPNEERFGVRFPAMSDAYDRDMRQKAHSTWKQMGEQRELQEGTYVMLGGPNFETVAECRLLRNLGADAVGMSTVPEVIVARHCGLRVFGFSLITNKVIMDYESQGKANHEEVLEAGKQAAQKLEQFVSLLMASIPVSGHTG
Test Description: PNP enzyme assay, radiochemical formation of [14C]-hypoxanthine from [14C]-inosine, calf spleen enzyme
Format: biochemical
Observable: IC50 (µM)
# value in µM; strip the unit string

INPUT: Param item = Nc1nc2c(C3CCCCC3)c[nH]c2c(=O)[nH]1 [ID] ; retrieve measured IC50.
OUTPUT: 145

###

Measurement Target: purine nucleoside phosphorylase (PNP) (Bos taurus)
Construct: using calf spleen as the enzyme source; from tissue; host or cells: calf spleen
Test Description: PNP enzyme assay, radiochemical formation of [14C]-hypoxanthine from [14C]-inosine, calf spleen enzyme
Assay type: biochemical
Cond: 1 mM phosphate; calf spleen PNP; read-out: IC50
Observable: IC50 (µM)
# value in µM; strip the unit string

INPUT: Param item = Nc1nc2c(C3CCCCC3)c[nH]c2c(=O)[nH]1 [ID] ; retrieve measured IC50.
OUTPUT: 1.3
